Tested on: Staphylococcus aureus
TEST: Antibacterial activity against Staphylococcus aureus assessed inhibition of bacterial growth
Assay type: functional

>  <COMPOUND_STRING>
CO[C@@H]1[C@@H](OC(=O)c2ccc(C)[nH]2)[C@@H](O)[C@H](Oc2ccc3c(O)c(NC(=O)c4c(C)ncn4CC=C(C)C)c(=O)oc3c2C)OC1(C)C

>  <SYSTEM_TESTED>
Staphylococcus aureus

>  <MIC90 [µg/mL]>
0.5

$$$$
>  <COMPOUND_STRING>
C#CCONC(=O)O[C@H]1[C@@H](O)[C@H](Oc2ccc3c(O)c(NC(=O)c4ccc(O)c(CC=C(C)C)c4)c(=O)oc3c2C)OC(C)(C)[C@@H]1OC

>  <SYSTEM_TESTED>
Staphylococcus aureus

>  <MIC90 [µg/mL]>
0.063

$$$$
>  <COMPOUND_STRING>
CO[C@@H]1[C@@H](OC(=O)c2ccc(C)[nH]2)[C@@H](O)[C@H](Oc2ccc3c(O)c(NC(=O)c4csc(C)n4)c(=O)oc3c2C)OC1(C)C

>  <SYSTEM_TESTED>
Staphylococcus aureus

>  <MIC90 [µg/mL]>
0.25

$$$$
>  <COMPOUND_STRING>
CO[C@@H]1[C@@H](OC(=O)c2ccc(C)[nH]2)[C@@H](O)[C@H](Oc2ccc3c(O)c(NC(=O)c4c[nH]cn4)c(=O)oc3c2C)OC1(C)C

>  <SYSTEM_TESTED>
Staphylococcus aureus

>  <MIC90 [µg/mL]>
1

$$$$
>  <COMPOUND_STRING>
CO[C@@H]1[C@@H](OC(=O)c2ccc(C)[nH]2)[C@@H](O)[C@H](Oc2ccc3c(O)c(NC(=O)c4cccc(N5CCN(C)CC5)c4)c(=O)oc3c2C)OC1(C)C

>  <SYSTEM_TESTED>
Staphylococcus aureus

>  <MIC90 [µg/mL]>
0.5

$$$$
>  <COMPOUND_STRING>
CO[C@@H]1[C@@H](OC(=O)c2ccc(C)[nH]2)[C@@H](O)[C@H](Oc2ccc3c(O)c(NC(=O)c4ccnc(N)c4)c(=O)oc3c2C)OC1(C)C

>  <SYSTEM_TESTED>
Staphylococcus aureus

>  <MIC90 [µg/mL]>
2

$$$$

###

TEST: Aqueous solubility of compound in acidic JP1 solution
Assay type: physicochemical
MEASUREMENT_CONTEXT: JP1 solution; read-out: solubility
solubility values for the molecules below.

>  <MOLECULE>
C[C@@H]1CN2c3c(cc4c(N5C(=O)OC[C@@H]5C)noc4c3F)CC3(C(=O)NC(=O)NC3=O)[C@H]2[C@H](C)O1 [ZOLIFLODACIN]

>  <UOM>
µM

>  <VALUE_OPERATOR>
=

>  <solubility>
66.3

$$$$
>  <MOLECULE>
CO[C@@H]1[C@@H](OC(=O)c2ccc(C)[nH]2)[C@@H](O)[C@H](Oc2ccc3c(O)c(NC(=O)c4ccnc(C)c4)c(=O)oc3c2C)OC1(C)C

>  <UOM>
µM

>  <VALUE_OPERATOR>
=

>  <solubility>
55

$$$$
>  <MOLECULE>
CO[C@@H]1[C@@H](OC(=O)c2ccc(C)[nH]2)[C@@H](O)[C@H](Oc2ccc3c(O)c(NC(=O)CCN(C)C)c(=O)oc3c2C)OC1(C)C

>  <UOM>
µM

>  <VALUE_OPERATOR>
>

>  <solubility>
100

$$$$

###

Tested on: Neisseria gonorrhoeae
TEST: Antibacterial activity against resistant Neisseria gonorrhoeae assessed inhibition of bacterial growth
Assay type: functional
Measured MIC90 values are reported for all entries that follow.
MEASURED_ENDPOINT: MIC90 (µg/mL)

>  <COMPOUND_STRING>
CO[C@@H]1[C@@H](OC(N)=O)[C@@H](O)[C@H](Oc2ccc3c(O)c(NC(=O)c4ccc(O)c(CC=C(C)C)c4)c(=O)oc3c2C)OC1(C)C

>  <MEASURED_ENDPOINT>
MIC90

>  <UOM>
µg/mL

>  <QUANTITATIVE_READOUT>
2

$$$$
>  <COMPOUND_STRING>
C=Cc1cc(C(=O)Nc2c(O)c3ccc(O[C@@H]4OC(C)(C)[C@H](OC)[C@@H](OC(=O)c5ccc(C)[nH]5)[C@H]4O)c(C)c3oc2=O)ccn1

>  <MEASURED_ENDPOINT>
MIC90

>  <UOM>
µg/mL

>  <QUANTITATIVE_READOUT>
0.5

$$$$
>  <COMPOUND_STRING>
CO[C@@H]1[C@@H](OC(=O)c2ccc(C)[nH]2)[C@@H](O)[C@H](Oc2ccc3c(O)c(NC(=O)CN(C)C)c(=O)oc3c2C)OC1(C)C

>  <MEASURED_ENDPOINT>
MIC90

>  <UOM>
µg/mL

>  <QUANTITATIVE_READOUT>
4

$$$$
>  <COMPOUND_STRING>
CO[C@@H]1[C@@H](OC(=O)c2ccc(C)[nH]2)[C@@H](O)[C@H](Oc2ccc3c(O)c(NC(=O)c4ccnc(N)c4)c(=O)oc3c2C)OC1(C)C

>  <MEASURED_ENDPOINT>
MIC90

>  <UOM>
µg/mL

>  <QUANTITATIVE_READOUT>
1

$$$$
>  <COMPOUND_STRING>
CO[C@@H]1[C@@H](OC(=O)c2ccc(C)[nH]2)[C@@H](O)[C@H](Oc2ccc3c(O)c(NC(=O)CCN(C)C)c(=O)oc3c2C)OC1(C)C

>  <MEASURED_ENDPOINT>
MIC90

>  <UOM>
µg/mL

>  <QUANTITATIVE_READOUT>
32

$$$$
>  <COMPOUND_STRING>
C#CCCNC(=O)O[C@H]1[C@@H](O)[C@H](Oc2ccc3c(O)c(NC(=O)c4ccc(O)c(CC=C(C)C)c4)c(=O)oc3c2C)OC(C)(C)[C@@H]1OC

>  <MEASURED_ENDPOINT>
MIC90

>  <UOM>
µg/mL

>  <QUANTITATIVE_READOUT>
32

$$$$
>  <COMPOUND_STRING>
CO[C@@H]1[C@@H](OC(=O)c2ccc(C)[nH]2)[C@@H](O)[C@H](Oc2ccc3c(O)c(NC(=O)c4c[nH]cn4)c(=O)oc3c2C)OC1(C)C

>  <MEASURED_ENDPOINT>
MIC90

>  <UOM>
µg/mL

>  <QUANTITATIVE_READOUT>
1

$$$$
>  <COMPOUND_STRING>
CO[C@@H]1[C@@H](OC(=O)c2ccc(C)[nH]2)[C@@H](O)[C@H](Oc2ccc3c(O)c(NC(=O)c4sc5nccn5c4C)c(=O)oc3c2C)OC1(C)C

>  <MEASURED_ENDPOINT>
MIC90

>  <UOM>
µg/mL

>  <QUANTITATIVE_READOUT>
0.5

$$$$
>  <COMPOUND_STRING>
CO[C@@H]1[C@@H](OC(=O)c2ccc(C)[nH]2)[C@@H](O)[C@H](Oc2ccc3c(O)c(NC(=O)c4ccc(C)c(C)c4)c(=O)oc3c2C)OC1(C)C

>  <MEASURED_ENDPOINT>
MIC90

>  <UOM>
µg/mL

>  <QUANTITATIVE_READOUT>
0.125

$$$$
>  <COMPOUND_STRING>
CO[C@@H]1[C@@H](OC(=O)c2ccc(C)[nH]2)[C@@H](O)[C@H](Oc2ccc3c(O)c(NC(=O)c4ccnc(Oc5cccnc5)c4)c(=O)oc3c2C)OC1(C)C

>  <MEASURED_ENDPOINT>
MIC90

>  <UOM>
µg/mL

>  <QUANTITATIVE_READOUT>
1

$$$$
>  <COMPOUND_STRING>
CO[C@@H]1[C@@H](OC(=O)c2ccc(C)[nH]2)[C@@H](O)[C@H](Oc2ccc3c(O)c(NC(=O)c4cn(Cc5cccc(C(F)(F)F)c5)cn4)c(=O)oc3c2C)OC1(C)C

>  <MEASURED_ENDPOINT>
MIC90

>  <UOM>
µg/mL

>  <QUANTITATIVE_READOUT>
0.5

$$$$
>  <COMPOUND_STRING>
CO[C@@H]1[C@@H](OC(=O)c2ccc(C)[nH]2)[C@@H](O)[C@H](Oc2ccc3c(O)c(NC(=O)c4cn(C)cn4)c(=O)oc3c2C)OC1(C)C

>  <MEASURED_ENDPOINT>
MIC90

>  <UOM>
µg/mL

>  <QUANTITATIVE_READOUT>
0.5

$$$$

###

TEST: Aqueous solubility of compound in acidic JP1 solution
Format: physicochemical
MEASUREMENT_CONTEXT: JP1 solution; read-out: solubility

>  <COMPOUND_STRING>
C#CCONC(=O)O[C@H]1[C@@H](O)[C@H](Oc2ccc3c(O)c(NC(=O)c4ccc(O)c(CC=C(C)C)c4)c(=O)oc3c2C)OC(C)(C)[C@@H]1OC

>  <solubility>
< 1 µM

$$$$
>  <COMPOUND_STRING>
CO[C@@H]1[C@@H](OC(=O)c2ccc(C)[nH]2)[C@@H](O)[C@H](Oc2ccc3c(O)c(NC(=O)CN(C)C)c(=O)oc3c2C)OC1(C)C

>  <solubility>
> 100 µM

$$$$
>  <COMPOUND_STRING>
CC[C@H]1OC(=O)[C@@](C)(F)C(=O)[C@H](C)[C@@H](O[C@@H]2O[C@H](C)C[C@H](N(C)C)[C@H]2O)[C@](C)(OC)C[C@@H](C)C(=O)[C@H](C)[C@H]2N(CCCCn3cc(-c4cccc(N)c4)nn3)C(=O)O[C@]12C

>  <solubility>
> 80 µM

$$$$

Provenance of the data: ChEMBL document CHEMBL5325486
